List of Ratio values.
System: ATP-dependent translocase ABCB1 (Homo sapiens)
Sequence (P08183 whole entry): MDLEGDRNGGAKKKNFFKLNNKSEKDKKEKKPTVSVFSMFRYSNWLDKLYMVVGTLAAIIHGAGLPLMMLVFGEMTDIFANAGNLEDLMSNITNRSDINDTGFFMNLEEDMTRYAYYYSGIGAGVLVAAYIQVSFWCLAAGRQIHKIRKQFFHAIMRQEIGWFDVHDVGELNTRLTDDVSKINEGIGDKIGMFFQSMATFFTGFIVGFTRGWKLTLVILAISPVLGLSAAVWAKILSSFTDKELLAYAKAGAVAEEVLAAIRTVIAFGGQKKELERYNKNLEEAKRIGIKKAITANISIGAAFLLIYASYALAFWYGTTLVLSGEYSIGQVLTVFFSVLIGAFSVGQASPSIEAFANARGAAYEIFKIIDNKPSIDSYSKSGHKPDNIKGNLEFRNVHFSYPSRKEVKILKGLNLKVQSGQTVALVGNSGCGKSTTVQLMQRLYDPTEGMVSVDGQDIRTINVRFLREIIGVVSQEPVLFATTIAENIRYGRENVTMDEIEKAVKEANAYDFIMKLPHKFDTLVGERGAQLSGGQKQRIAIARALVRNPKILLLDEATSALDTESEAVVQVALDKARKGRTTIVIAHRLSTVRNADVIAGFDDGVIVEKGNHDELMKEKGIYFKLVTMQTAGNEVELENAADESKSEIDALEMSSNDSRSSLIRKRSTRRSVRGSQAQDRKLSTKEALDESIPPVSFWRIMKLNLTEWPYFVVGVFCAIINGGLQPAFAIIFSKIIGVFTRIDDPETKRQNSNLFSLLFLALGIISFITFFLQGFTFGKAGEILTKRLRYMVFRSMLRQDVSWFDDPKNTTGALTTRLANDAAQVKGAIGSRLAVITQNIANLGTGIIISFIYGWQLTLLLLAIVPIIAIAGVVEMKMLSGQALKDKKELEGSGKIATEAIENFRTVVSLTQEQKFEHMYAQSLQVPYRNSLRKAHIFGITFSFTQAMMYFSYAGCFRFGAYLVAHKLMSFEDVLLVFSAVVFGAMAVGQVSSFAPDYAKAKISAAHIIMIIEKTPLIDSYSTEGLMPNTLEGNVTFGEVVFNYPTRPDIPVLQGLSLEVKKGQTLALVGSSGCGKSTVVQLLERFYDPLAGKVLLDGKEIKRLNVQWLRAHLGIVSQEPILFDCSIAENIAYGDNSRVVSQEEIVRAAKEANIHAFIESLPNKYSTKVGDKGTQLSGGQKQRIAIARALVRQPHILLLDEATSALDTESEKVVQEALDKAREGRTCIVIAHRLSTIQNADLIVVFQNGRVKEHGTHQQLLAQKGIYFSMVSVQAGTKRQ
Test Details: Inhibition of human ABCB1 expressed in mouse L5178Y cells using rhodamine 123 as substrate assessed as ratio of fluorescent intensity in ABCB1 expressing L5178Y cells to wild type L5178Y cells at 10 uM after 20 mins by flow cytometry
Format: cell-based
Parameter Measured: Ratio

INSERT INTO measurements (compound, recorded_value) VALUES
  ('CCOC(=O)C1=CN(Cc2cccc(OC)c2)c2ccccc2C1c1ccc(OC)cc1 (configuration not stated)', 9.95),
  ('CCOC(=O)C1=CN(Cc2ccccc2)c2ccccc2C1c1ccc(OC)c(OC)c1 (configuration not stated)', 12.77),
  ('CCOC(=O)C1=CN(Cc2ccccc2)c2ccccc2C1c1ccccc1 (configuration not stated)', 4.72),
  ('CCOC(=O)C1=CN(Cc2cccc(OC)c2)c2ccccc2C1c1ccc(OC)c(OC)c1 (configuration not stated)', 15.86),
  ('CCOC(=O)C1=CN(Cc2ccc(OC)cc2)c2ccccc2C1c1ccc(OC)cc1 (configuration not stated)', 13.66),
  ('CCOC(=O)C1=CN(Cc2cccc(OC)c2)c2ccccc2C1c1cc(OC)cc(OC)c1 (configuration not stated)', 13.11),
  ('CCOC(=O)C1=CN(Cc2cccc(OC)c2)c2ccccc2C1c1cccc(OC)c1 (configuration not stated)', 9.68),
  ('CCOC(=O)C1=CN(Cc2ccc(OC)cc2)c2ccccc2C1c1cc(OC)cc(OC)c1 (configuration not stated)', 13.36),
  ('CCOC(=O)C1=CN(Cc2ccccc2)c2ccccc2C1c1cc(OC)cc(OC)c1 (configuration not stated)', 10.5),
  ('COc1ccc(CCN(C)CCCC(C#N)(c2ccc(OC)c(OC)c2)C(C)C)cc1OC (configuration not stated)', 4.98),
  ('CCOC(=O)C1=CN(Cc2ccc(OC)cc2)c2ccccc2C1c1cccc(OC)c1 (configuration not stated)', 10.34),
  ('CCOC(=O)C1=CN(Cc2ccc(OC)cc2)c2ccccc2C1c1ccc(OC)c(OC)c1 (configuration not stated)', 15.84);
